Test system: rat cortical neurons
Experiment: Neurite outgrowth assay (Cyprotex)
Type: cell-based
Details: Rattus norvegicus, Cortical neurone, 72 h, read-out: Mean Neurite Avg. Length IC50, rat cortical neurons, 72 h
ENDPOINT_LABEL: IC50 (µM)
I only need the number, in µM, no unit after it.

As a guide, the following entries are already answered.
| COMPOUND | ENDPOINT_LABEL | SCALE_UNIT | OBS_VALUE |
| --- | --- | --- | --- |
| CN(C)CCCN1c2ccccc2Sc2ccc(Cl)cc21 [Chlorpromazine, reference compound] | IC50 | µM | 9.02 |
| [O-][S@+](Cc1cccs1)[C@H](c1ccccc1)c1cccc(Br)c1 | IC50 | µM | 75.2 |

As a next step, examine the compound that follows.
For record `[O-][S@@+](Cc1cccs1)[C@@H](c1ccccc1)c1cccc(Br)c1` the listed IC50 is 65.8
